# assayed-target: S. mansoni TGR (Schistosoma mansoni, UniProt Q962Y6)
# Sequence (Q962Y6 1-598): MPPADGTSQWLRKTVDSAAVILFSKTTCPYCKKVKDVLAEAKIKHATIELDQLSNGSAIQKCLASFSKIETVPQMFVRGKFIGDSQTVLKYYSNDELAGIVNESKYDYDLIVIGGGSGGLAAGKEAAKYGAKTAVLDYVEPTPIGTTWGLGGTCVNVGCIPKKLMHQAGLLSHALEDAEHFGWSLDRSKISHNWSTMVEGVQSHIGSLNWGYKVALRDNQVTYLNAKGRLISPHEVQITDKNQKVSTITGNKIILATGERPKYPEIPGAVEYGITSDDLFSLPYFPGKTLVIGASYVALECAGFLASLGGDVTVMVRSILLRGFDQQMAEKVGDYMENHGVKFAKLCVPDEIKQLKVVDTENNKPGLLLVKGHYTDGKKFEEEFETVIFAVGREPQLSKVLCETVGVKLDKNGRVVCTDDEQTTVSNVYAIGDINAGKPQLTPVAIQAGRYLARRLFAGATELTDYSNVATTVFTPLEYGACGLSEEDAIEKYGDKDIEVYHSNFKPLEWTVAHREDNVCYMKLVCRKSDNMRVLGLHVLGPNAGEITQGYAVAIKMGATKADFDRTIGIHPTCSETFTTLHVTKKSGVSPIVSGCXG
# assay-explanation: biochemical
# Format: biochemical
# Parameters: The entire TGR ORF plus the SECIS element was subcloned into pET-24a; made in house; host or cells: Escherichia coli BL21(DE3) with pSUABC
# setup-conditions: DTNB as substrate; read-out: Ki (± standard deviation), TrxR activity of TGR
value-type: pKi
Numbers only, as −log10 of the molar value.

Briefly, pKi measured for O.O.O.O=C([O-])[C@H]([O-])[C@@H]([O-])C(=O)[O-].O=C([O-])[C@H]([O-])[C@@H]([O-])C(=O)[O-].[K+].[K+].[Sb+3].[Sb+3] [PAT, potassium antimonyl tartrate] : 8.31
